Origin of measurements: the nanobody polyreactivity screen of Harvey et al. (2022)

assay: yeast display, Sf9 membrane polyspecificity reagent, FACS + sequencing; frameworks hold sequencing errors
reported-property: polyreactivity (PSR sort gate)

Please review the following examples before continuing.
>>> df
                              sequence_code          test_result
0  QVQLVESGGGLVQAGGSLRLSCAASGGIFYHYTMGWYRQAPGKERELVASIRGSGGRTYYADSVKGRFTLSRDNAKNTVDLQMNSLKPEDTAVYYCNARGSWYQPTYDYWGQGTQVTVST  high polyreactivity
1  QVQLVESGGGLVQVGGSLRLSCAASGRTFYRYAMGWYRQAPGKERELVATINWTSGSTYYADSVKGRFTISRDKAKNTVYLQMNSLKPEDTAVYYCATVPHGKDTFGYWGQGTQVTVSS  high polyreactivity
2  QVQLVESGGGLVQAGGSLRLSCAASGFTCSRYAMGWYRQAPGKERELVAAISSGGSTNYADSVKGRFTISRDNAKNTVYLQMNSLKPEDTAVYYCAVTWRYKGYYWGQGTQVTVSS  high polyreactivity
3  QVQLVESGGGLVQAGGSLRLSCAASGITFVFNAMGWYRQAPGKERELVASITIGGNTYYADSVKGRFTISRDNAKNTVYLQMNSLKPEDSAVYYCAADIARSVRFYYWGQGTQVTVSS   low polyreactivity

For QVQLQESRGGLVKAGGSLRLSCAATGNISPRDAMGWYRQAPGEERDLVASNAYSAITYYADGVKGRYTISRDNAKNTVYLQMNSLKPEDTEVYYCAVYQFTYPVFPAYWGQGTQVTVSS , what is its reported polyreactivity (PSR sort gate)?
low polyreactivity

----------
assay: yeast display, Sf9 membrane polyspecificity reagent, FACS + sequencing; frameworks hold sequencing errors
reported-property: polyreactivity (PSR sort gate)

sequence-code	polyreactivity (PSR sort gate)
QVQLVESGGGLVQAGGSLRLSCAASGRNFAPNAMGWYRQAPGKERELVAAISGSGTSTYYADSVKGRFTISRDNAKNTVYLQMNSLKPEDTAVYYCAKSARGRRGGFDYWGQGTQVTVSS	low polyreactivity
QVQLLESGGGLVQPGGSLRLSCAASGSTFYDYAMGWYRTAPGKEREFVADIYSNGGSTYYAHSVKGRFTISRDNANYTVYLQMNSLKPEDTAVYYCASVLRPRQGRRYDYWGQGTQVTVSS	low polyreactivity
QVQLVESGGGLVQAGGSLRLSCAASGYTFGEYAMGWYRQAPGKERELVATISLSDGSTNYADSVKGRFTISRDNAKNTVYLQMNSLKPEDTAVYYCATTVWYKKAPYPDGDYWGQGTQVTVSS	low polyreactivity
QVQLVESGGGLVQAGGSLRLSCAASGITFTSYAMGWYRQAPGKERELVAAISSSGVRTYYADSVKGRFTISRDNAKNTVYLQMNSLKPEDTAVYYCATRRRVLNCYDYWGQGTQVTVSS	high polyreactivity

Look up polyreactivity (PSR sort gate) for this sequence: QVQLVESGGGLVQAGVSLRLSCAASGSIFVYNAMGWYRQAPGKERELVAAISSSGTRTYYADSVKARFTISRDNAKNTVYLQMNSLKPEDTAVYYCAAYYVPWGTLYHLDYWGQGTQVTVSS
high polyreactivity

----------
assay: yeast display, Sf9 membrane polyspecificity reagent, FACS + sequencing; frameworks hold sequencing errors
reported-property: polyreactivity (PSR sort gate)

Look over these answered cases.
sequence-code	reported-property	test-result
QVQLVESGGGLVQAGGSLRLSCAASGRTYPGNAMGWYRPAPGKERELVAAISWSGTRTYYADSVKGRFTISRDNAKNTVYLQMNSLKPEDTAVHFCNVVVKGAWDYYPYDYWGQGTQVTVSS	polyreactivity (PSR sort gate)	high polyreactivity
QVQLVESGGGLVQAGGSLRLSCAASGSTFYIYAMGWYRQAPGKERELVARITRGGTTYADSVKGRFTISRDNAKNTVYLQMNSLKLEDTAVYYCNAASKTTRYYQAFYSGGGYWGQGTQVTVSS	polyreactivity (PSR sort gate)	high polyreactivity
QVQLVESVGGLVQAGGSLRISCAASGRIFYNYAMGRYRQAPGKERELVAAISGSGGSTYYADSVKGRFTISRDIAKNTVYLQMNSLIPEDTAVFYCSTSGPQYYSRNFDYWGQGTQVTVSS	polyreactivity (PSR sort gate)	low polyreactivity
QVQLVESGGGLVQAGGSLRLSCPASGSILYSYAMGWYRQAHGKERELVAAITGDGASTNYADSVKGRFTISRDNAKNTVYFQMNSLKPEDTAVYYCNAGRESDDVYEGSQRIGQFDYWGQGTLVTVSS	polyreactivity (PSR sort gate)	low polyreactivity
QVQLVESGGGLVQAGGSLRLSCAASGIIFNGNTMGWYRQAPGKERELVAAITSGGTTSYADSVKGRFTISRDNAKNTVYLQMNSLKPADTAVYYCAADHPAFGPGYSFDYWGQGTQVTVSS	polyreactivity (PSR sort gate)	low polyreactivity

What polyreactivity (PSR sort gate) value was documented for this sequence, QVQLVESGGGLVQAGGSLRISCAASGSIFDLNPMGGYRQAPGKERELVAAISSGGGTYYADSVKGRFTISRDNAKNTVYLQMNRLIPEDTAVYYCIRVTRWTSNYWGQCTQVTVSS ?
high polyreactivity

# query: polyreactivity (PSR sort gate) of entry QVQLVESGGGLVQAGGSLRLSCAASGFTFLKYAMGWYRQAPGKERELVAAISWSGGRTFYADSVKGRFTISRDNAKNTVYLQMISLKPEDTAVYYCATRTRGSVYRFDYWGQGTQVTVSS
high polyreactivity

Quick one: polyreactivity (PSR sort gate) of QVQLVDSGGGLVQAGGSLRLSCAASGYSFYFYAMGWYRQAPGKERELVAAITGGGTTSYADSVKGRFTISRDNAKNTVYLQMNSLKPEDTAVYYCNVLFADKSDYWGQGTLVTVSS ?
low polyreactivity

----------
assay: yeast display, Sf9 membrane polyspecificity reagent, FACS + sequencing; frameworks hold sequencing errors

sequence-code	polyreactivity (PSR sort gate)
QMQLQESGGGLVQAGGSQRLSCAASDSISIGAGMGWYRQAPGKERELVAGISVGTSTNYADSVNGRFTISRVNAKNTVYLQMNSLKPEDTAVYYCAKGYRRVYGPFYYWGQGTQVTVSS	low polyreactivity
QVQLVESGGGLVQAGGSLRLSCAAAGFTFYIYAMGWYRKAPGKERELVAAITTTTGSTYYADSVKGRFTISRDNAKNTVYLQMNSLKPEDTAVYYCAAEGHYYYFGYYYWGQGTQVTVSS	low polyreactivity

----------
assay: yeast display, Sf9 membrane polyspecificity reagent, FACS + sequencing; frameworks hold sequencing errors
reported-property: polyreactivity (PSR sort gate)

Please review the following examples before continuing.
sequence-code	reported-property	test-result
QVQLVQSGGGLVQAGGSLRLICAASGSNFYGNAMGWYRQAPGKERELVAAISRGGGYTYYADSVKGRFTISRDNAKNTVYLEMNSLKPEDTAVYYCDATRYLHPWYYPYYYWGQVTQVTVSS	polyreactivity (PSR sort gate)	low polyreactivity
QVQLVESGGGLVQAGGSLRLSCSASGIIFDVNALGWYRQSPGKERELVADITYSVGSTSYADSVKGRFTISRDNAKNTVYLQMNSLKPEDTAVYYCAAVYSHSGGEGIKYDYWGQGTQVTVSS	polyreactivity (PSR sort gate)	low polyreactivity
QVQLVETGGGLVQAGGSLRLSCAASAFTFASYAMGWYRQAPGKEREFVAAITRSGGSTYYADSVKGRFTISRDNAKNTVYLQMNSLKPEDTAVYYGAAQYHGGISQRLYYWGQGTQVTVSS	polyreactivity (PSR sort gate)	high polyreactivity
QVQLVESGGGLVQAGGSLRLSCAASGFIFSSNAMGWYRQAPGKERELVATISFSGESTYYADSVKGRFTISRDNAKNTVYLQMNSLKPEDTAVYYCARRTYYRWYKYGYYDYNYWRQGTQVTVSS	polyreactivity (PSR sort gate)	low polyreactivity
QVQLVESGGGLVQAGGSLRLSCAASGRIFYYYVMGWYRQAPGKERELVAVIDWSGGSTYYADSVKGRFTISRDNAKNTVYLQMNSLKPEDTGVYYCAKVWLKFSLAYEDYDYLGQGTQVTVSS	polyreactivity (PSR sort gate)	low polyreactivity

API: the following record is the query input.
Param item = QVQLQESVGGLVQAGGSLRLSCAASGNIFPTDRMGWYRQAPGKELEFVATISDGGSTNYADSVKGRFTISRDNAKNTVYLQMNSLKPEDTAVYYCAVWSLGRWRHYYWGQGTQVTVSS ; retrieve measured polyreactivity (PSR sort gate).
low polyreactivity

----------
assay: yeast display, Sf9 membrane polyspecificity reagent, FACS + sequencing; frameworks hold sequencing errors
reported-property: polyreactivity (PSR sort gate)

Consider the following illustrative entries.
sequence-code	polyreactivity (PSR sort gate)
QVQLVESGGGLVQAGGSLRLSCAASGSTFRNNGMGWYRQAPGKERELVAAITKSGGSTYYADSVKGRFTISRDNAKNTVYLQMNSLKPEDTAVYYCAARFWYNTPRVGWRRYNYWGQGTQVTVSS	high polyreactivity
QVQLVESGGGLVQAGGSLRLSCAASGRIFYGYAMGWYRQAPGKERELVAAITRGGSTYYADSVKGRFTISRDNAKNTVYLQMNSLKPEDTAVYYCAAVIYSYRSYREYGYWGQGTQVTVSS	high polyreactivity
QVQLEESGGGLVQAGGSLRLSCAASGSIFYLNDMGWYRQAPGKEREFVAAIDSRGTSTYYADSVKGRFTISRDNAKNTVYLQMNSLKPEDTAVYYCAADSYALEYDYWGQGTQVTVSS	low polyreactivity
QVQLVESGGGLVQAGGSLRLSCAASGSNIYHNTMGWYRQAPGKERELITYYADSVKGRFTISRDNAKNTVYLQMNSLKPEDTAVYYCAASPVSRTGPGDYDYWGQGTQVTVSS	low polyreactivity

Would you mind telling me what polyreactivity (PSR sort gate) value was observed for QVQLEESGGGLVQAGGSLRLSCAASGSIFITYAMGWYRQAPGKERELVAAIRDSGDRTYYADSVKGRFTISRDTAKNTVYLQMNSLKPEDTGVYYCNARWQETLKYDYWGQGTLVTVSS ?
low polyreactivity
